experiment: AUC (0 to infinity) in Nu/Nu rat at 30 mg/kg, iv administered using TPPW as vehicle; format: ADME, organism-based; design: time infinity, dose 30 mg/kg, route intravenous; settings: plasma
Attribute Measured: AUC(0-inf) (µM·h)
Just the number in µM·h, nothing appended.

Look up and state reported AUC(0-inf) for Cc1cc(Nc2nc(Sc3ccc(NC(=O)CN4CC[C@@H](C(=O)NC5CCCC5)C4)cc3)nn3cccc23)n[nH]1
62.5

====

Listed compounds paired with reported fraction unbound
assay: Protein binding in plasma; assay type: ADME, cell-free; settings: read-out: PPB
Format: numeric value only, no unit, no commentary.

Cc1cc(Nc2nc(Sc3ccc(NC(=O)CN4CC[C@@H](C(=O)NC5CCCC5)C4)cc3)nn3cccc23)n[nH]1 ... 0.01

Look up and state reported fraction unbound for Cc1cc(Nc2nc(Sc3ccc(NC(=O)CN4CC[C@@H](C(=O)N5CCC(F)(F)C5)C4)cc3)nn3cccc23)n[nH]1
0.01

====

assay: Clearance in athymic Nu/Nu rat at 3 mg/kg, iv administered using TPPW as vehicle; format: ADME, organism-based; set-up: dose 3 mg/kg, route intravenous; conditions: in vivo
Attribute Measured: clearance (mL/min/kg)
Just the number in mL/min/kg, nothing appended.

Look up and state reported clearance for Cc1cc(Nc2nc(Sc3ccc(NC(=O)CN4CC[C@@H](C(=O)NC5CCCC5)C4)cc3)nn3cccc23)n[nH]1
27.9

====

test: Clearance in athymic Nu/Nu rat at 30 mg/kg, iv administered using TPPW as vehicle; format: ADME, organism-based; set-up: dose 30 mg/kg, route intravenous; conditions: in vivo
Attribute Measured: clearance (mL/min/kg)
Just the number in mL/min/kg, nothing appended.

Look up and state reported clearance for Cc1cc(Nc2nc(Sc3ccc(NC(=O)CN4CC[C@@H](C(=O)NC5CCCC5)C4)cc3)nn3cccc23)n[nH]1
14.7

====

Biological target: Aurora kinase A (Homo sapiens)
Sequence (O14965 whole entry): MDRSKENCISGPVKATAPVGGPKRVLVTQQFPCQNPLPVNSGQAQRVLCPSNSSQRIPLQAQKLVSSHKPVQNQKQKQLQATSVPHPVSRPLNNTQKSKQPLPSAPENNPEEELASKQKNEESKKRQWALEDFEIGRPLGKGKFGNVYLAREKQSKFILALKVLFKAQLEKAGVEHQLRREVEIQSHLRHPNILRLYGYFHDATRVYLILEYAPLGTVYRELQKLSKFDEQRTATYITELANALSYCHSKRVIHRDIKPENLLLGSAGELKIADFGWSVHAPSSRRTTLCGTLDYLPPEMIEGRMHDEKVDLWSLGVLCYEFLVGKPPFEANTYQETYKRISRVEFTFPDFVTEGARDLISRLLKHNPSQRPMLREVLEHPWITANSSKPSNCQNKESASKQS
Attribute Measured: pKd
Note on pKd: it is the negative log10 of concentration, concentration in mol/L.

Answered cases to consult:
Cc1cc(Nc2nc(Sc3ccc(NC(=O)CN4CC[C@@H](OCCO)C4)cc3)nn3cccc23)n[nH]1 ... 8.35
Cc1cc(Nc2nc(Sc3ccc(NC(=O)CN4CC[C@@H](OC(C)(C)C)C4)cc3)nn3cccc23)n[nH]1 ... 7.60
Cc1cc(Nc2nc(Sc3ccc(NC(=O)CN4CC[C@@H](C(=O)NCCN5CCOCC5)C4)cc3)nn3cccc23)n[nH]1 ... 8.20
Cc1cc(Nc2nc(Sc3ccc(NC(=O)CN4CCC(C(=O)N5CCCC5)C4)cc3)nn3cccc23)n[nH]1 (racemic) ... 8.06
Cc1cc(Nc2nc(Sc3ccc(NC(=O)CN4CC[C@@H](NS(C)(=O)=O)C4)cc3)nn3cccc23)n[nH]1 ... 7.91

// output pKd; input Cc1cc(Nc2nc(Sc3ccc(NC(=O)CN4CC[C@@H](C(=O)NC5CCCC5)C4)cc3)nn3cccc23)n[nH]1 ; system Aurora kinase A (Homo sapiens)
8.03

// output pKd; input Cc1cc(Nc2nc(Sc3ccc(NC(=O)CN4CC[C@@H](S(=O)(=O)C(C)(C)C)C4)cc3)nn3cccc23)n[nH]1 ; system Aurora kinase A (Homo sapiens)
8.40

// output pKd; input Cc1cc(Nc2nc(Sc3ccc(NC(=O)CN4CC[C@@H](C(=O)N5CCOCC5)C4)cc3)nn3cccc23)n[nH]1 ; system Aurora kinase A (Homo sapiens)
8.40

// output pKd; input Cc1cc(Nc2nc(Sc3ccc(NC(=O)CN4CC[C@@H](C(=O)N5CCC(O)CC5)C4)cc3)nn3cccc23)n[nH]1 ; system Aurora kinase A (Homo sapiens)
8.40

// output pKd; input Cc1cc(Nc2nc(Sc3ccc(NC(=O)CN4CC[C@H](C(=O)N5CCCC5)C4)cc3)nn3cccc23)n[nH]1 ; system Aurora kinase A (Homo sapiens)
8.00

// output pKd; input COCCO[C@@H]1CCN(CC(=O)Nc2ccc(Sc3nc(Nc4cc(C)[nH]n4)c4cccn4n3)cc2)C1 ; system Aurora kinase A (Homo sapiens)
7.94

// output pKd; input Cc1cc(Nc2nc(Sc3ccc(NC(=O)CN4CC[C@@H](C(=O)NC(C)(C)C)C4)cc3)nn3cccc23)n[nH]1 ; system Aurora kinase A (Homo sapiens)
8.25

// output pKd; input Cc1cc(Nc2nc(Sc3ccc(NC(=O)CN4CC[C@@H](OCCN5CCOCC5)C4)cc3)nn3cccc23)n[nH]1 ; system Aurora kinase A (Homo sapiens)
7.96

// output pKd; input Cc1cc(Nc2nc(Sc3ccc(NC(=O)CN4CC[C@@H](OCCCN5CCOCC5)C4)cc3)nn3cccc23)n[nH]1 ; system Aurora kinase A (Homo sapiens)
8.29

// output pKd; input Cc1cc(Nc2nc(Sc3ccc(NC(=O)CN4CC[C@@H](C(=O)Nc5ccc(F)cc5)C4)cc3)nn3cccc23)n[nH]1 ; system Aurora kinase A (Homo sapiens)
7.71

// output pKd; input Cc1cc(Nc2nc(Sc3ccc(NC(=O)CN4CC[C@@H](C(=O)N5CCC(F)(F)C5)C4)cc3)nn3cccc23)n[nH]1 ; system Aurora kinase A (Homo sapiens)
8.24

====

experiment: Volume of distribution in Nu/Nu rat at 5 mg/kg, iv administered using TPPW as vehicle; format: ADME, organism-based; design: dose 5 mg/kg, route intravenous; settings: in vivo
Attribute Measured: Vd (L/kg)
Just the number in L/kg, nothing appended.

Look up and state reported Vd for Cc1cc(Nc2nc(Sc3ccc(NC(=O)CN4CC[C@@H](C(=O)N5CCC(F)(F)C5)C4)cc3)nn3cccc23)n[nH]1
0.7

====

system: HCT-116; assay: Antiproliferative activity against human HCT116 cells after 72 hrs by BrdU-based ELISA; type: functional, cell-based; details: HCT-116, 72 h
Listed compounds paired with reported log10 of IC50
On a log10 scale: recorded IC50, unit nM.

Cc1cc(Nc2nc(Sc3ccc(NC(=O)CN4CCC(C(=O)C(C)(C)C)C4)cc3)nn3cccc23)n[nH]1 (racemic) ... 1.10
Cc1cc(Nc2nc(Sc3ccc(NC(=O)CN4CC[C@@H](C(=O)NCCN5CCOCC5)C4)cc3)nn3cccc23)n[nH]1 ... 1.28
Cc1cc(Nc2nc(Sc3ccc(NC(=O)CN4CC[C@@H](C(=O)NC5CCC5)C4)cc3)nn3cccc23)n[nH]1 ... 0.11
Cc1cc(Nc2nc(Sc3ccc(NC(=O)CN4CC[C@@H](OCCN5CCOCC5)C4)cc3)nn3cccc23)n[nH]1 ... 1.25
Cc1cc(Nc2nc(Sc3ccc(NC(=O)CN4CC[C@@H](C(=O)N5CCCCC5)C4)cc3)nn3cccc23)n[nH]1 ... 0.51

Field: next compound
Look up and state reported log10 of IC50 for Cc1cc(Nc2nc(Sc3ccc(NC(=O)CN4CC[C@@H](O)C4)cc3)nn3cccc23)n[nH]1
1.87

====

test: Half life in Nu/Nu rat at 5 mg/kg, iv administered using TPPW as vehicle; format: ADME, organism-based; parameters: dose 5 mg/kg, route intravenous; settings: in vivo
Attribute Measured: half-life

Look up and state reported half-life for Cc1cc(Nc2nc(Sc3ccc(NC(=O)CN4CC[C@@H](C(=O)N5CCC(F)(F)C5)C4)cc3)nn3cccc23)n[nH]1
1.1 h

====

test: Half life in Nu/Nu rat at 10 mg/kg, iv administered using TPPW as vehicle; assay type: ADME, organism-based; parameters: dose 10 mg/kg, route intravenous; details: in vivo
Attribute Measured: half-life (min)
Just the number in min, nothing appended.

Look up and state reported half-life for Cc1cc(Nc2nc(Sc3ccc(NC(=O)CN4CC[C@@H](C(=O)NC5CCCC5)C4)cc3)nn3cccc23)n[nH]1
228

====

experiment: Half life in Nu/Nu rat at 50 mg/kg, iv administered using TPPW as vehicle; type: ADME, organism-based; set-up: dose 50 mg/kg, route intravenous; details: in vivo
Attribute Measured: half-life (h)
Just the number in h, nothing appended.

Look up and state reported half-life for Cc1cc(Nc2nc(Sc3ccc(NC(=O)CN4CC[C@@H](C(=O)N5CCC(F)(F)C5)C4)cc3)nn3cccc23)n[nH]1
2.9

// provenance: ChEMBL document CHEMBL2163334
